assayed.system: Eukaryotic translation initiation factor 4H (Homo sapiens) (UniProt Q15056)
assay.protocol: human eIF4H binding inhibitors, primary screen, translation initiation inhibitor project, biochemical, uHTS, fluorescence polarization (AID 2012);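 further: calls also rest on retests at 20 µM and on dose response follow-up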
condition.set: eIF4H fluorescence polarization binding assay; at 35 µM; hits give high values
The campaign covered roughly 290,000 compounds. About 2,700 (0.93%) were called active. The full list was thinned out, with actives kept by preference.
Listed here: items and their measured inhibition.
The reply should be a number in %, with the unit left off.

molecule=O=C(CN1C(=O)c2cccnc2Oc2ccc(Cl)cc21)Nc1ccc(F)cc1 endpoint_result=-8.2

Form field inhibition, entry CCOC(=O)c1c(C)[nH]c2c1-c1ccccc1C(=O)C2=O : -11

Form field inhibition, entry CC(=O)N(CN1C(=O)C2CC=CCC2C1=O)c1cccc(Cl)c1 (stereo unspecified) : 26

Form field inhibition, entry COc1cccc(C(=O)Nc2nnc(S(=O)(=O)N3CCOCC3)s2)c1 : -15.7

Form field inhibition, entry O=C(O)CCC(=O)Nc1ccc(OCC2CCCO2)cc1 (stereo unspecified) : 2.6

Form field inhibition, entry O=C(CN1C(=O)C2C3C=CC(C3)C2C1=O)NCCc1ccccc1Cl (stereo unspecified) : -10.5

The reported measurements were obtained from PubChem BioAssay AID2012.
